Test: Solubility of CBD in the Receptor Fluid
Assay type: physicochemical
Conditions: not told, aqueous with cosolvent or surfactant or cyclodextrin; PBS with 0.01 wt % NaN3, 4 wt % hydroxypropyl-cyclodextrin, 1 wt % Brij O20

# MOLECULE, solubility
data = [
    ("C=C(C)C1CCC(C)=CC1c1c(O)cc(CCCCC)cc1O (stereo not shown)", "> 50 µg/mL"),
]
